Tested on: MS2 coat protein
protocolDescription: apparent KD of MS2 coat protein, switch OFF state (with FMN for OFF switches, without FMN for ON switches); designed switch direction (-1 OFF switch, 1 ON switch): 1; higher = weaker reporter binding
conditionDescription: FMN input: 0 or 200 uM; Eterna round: R93 (includes R88 designs)
observable: apparent KD of MS2 coat protein

Solved entries:
INSERT INTO assay_data (polymersequence, observable, result) VALUES
  ('ACAAUACAUGAGGAUCACCCAUGUUAGCUGGGCGAAGGAUAUGUAGAUGGAUAAAAAUAUGCAGAAGGUCGAUAAC [JR_SS001_Sub209]', 'apparent KD of MS2 coat protein', '109 nM'),
  ('CGGAGACAUGAGGAUCACCCAUGUGAGAAGAGGCGAGGAUAUCGAAAGAAAGAAGAGAAACGAGAAGGCGCGAGCU [salish99-SS1-072]', 'apparent KD of MS2 coat protein', '27.6 nM');

// next entry
Request: API: value(readout= apparent KD of MS2 coat protein, system= MS2 coat protein, query= AAAAGACAUGAGGAUCACCCAUGUCAAAACAUAGGAGGAUAUGUCGUGAAAAAAGACUUGGCAGAAGGCCUUUGUC [SS1 - 48] )
Result: 19.3 nM

----------
System: MS2 coat protein
protocolDescription: apparent KD of MS2 coat protein; designed switch direction (-1 OFF switch, 1 ON switch): -1; higher = weaker reporter binding
conditionDescription: Eterna round: R95; input ligand: none
Field: apparent KD of MS2 coat protein. Provide a value for each of the sequences that follow.

Quick one: give me apparent KD of MS2 coat protein for each item below, same order please.
1. UAUUUCAUCUAUGGGAGUAACAUGAGGAUCACCCAUGUAUGUCUUGUUUUUUGUUCGUCUAAGACUUUCUGAUCAGU [JR_SV3TOV1_Sub031] (puzzle: Sensor v3, turn-off variant 1)
2. AGUAACCGUCACGAAAGUGAUGGUUACACAAGCAAAUGUACAUGAGGAUCACCCAUGUCCUCAUUUGUUCGUCUUAU [Sensor 3 - 47] (puzzle: Sensor v3, turn-off variant 2)
3. GAUUAUGCGAGCUUUAGGGACAUGAGGAUCACCCAUGUUCGUCUUGUUGAUCUAGGUACGCUAACAUACCUAAAUCU [JMF 6] (puzzle: Sensor v3, turn-off variant 1)

Result:
["35.4 nM", "87.5 nM", "20.2 nM"]

Answer for every listed entry: what is its apparent KD of MS2 coat protein? The entries follow.
1. GAUAAAGGGCAGGAUAUGGCUGGAAAAUAUCCGCCAGAAGGGCCCACAUGAGGAUCACCCAUGUGUGGUCCGCG [Lere] (puzzle: Exclusion 6)
2. AAGAAACAUGAGGAUCACCCAUGUGAGGAUAUGAAAAAGAAAAGAAAAGAAAGAAUAAUCAGAAGGCACAAAGG [Mat - Mod of Hog D11] (puzzle: Exclusion 1)
3. AAGAAACAUGAGGAUCACCCAUGUGAGGAUAUGAGAAAGAAAAGAAAAGAAAGAAGAAUCAGAAGGCACAAAGG [salish99-ex1_r3_032] (puzzle: Exclusion 1)
4. UAAUACAAGUAAAGAUCCUACAUGAGGAUCACCCAUGUGCUCGUCUUGUAAAGUACUAUCACGAAAGUGAUAGUACU [Mat - Sensor v3 - turn-off var 1 - Eli Mod - D86] (puzzle: Sensor v3, turn-off variant 1)
5. GGUCAAGAACAGCGCCGCGCUGCCCUUGACCGCUCAUUUACAUGAGGAUCACCCAUGUUUUUUGCUUGUCUUGUUUC [Tiordiri] (puzzle: Sensor v3, turn-off variant 2)
6. GGUAGUAUGAGUAGUCCUCAUUGAAGAGAUUGGUAAGAUACAUGAGGAUCACCCAUGUUUGAACAAGCUUUUGCUCA [JR_Sv3TOV2_Sub006] (puzzle: Sensor v3, turn-off variant 2)
7. AUAACUCUAGUCAGGAUAUGCGAGCAAGGAUUAGAGCAGAAGGGACAUGAGGAUCACCCAUGUGGUAGCUGGGU [Indiraa] (puzzle: Brourd's mod of Exclusion 4)

Result:
19.1 nM
40.1 nM
116 nM
44.8 nM
23.7 nM
298 nM
77.5 nM

----------
Test system: MS2 coat protein
protocolDescription: apparent KD of MS2 coat protein; designed switch direction (-1 OFF switch, 1 ON switch): 1; higher = weaker reporter binding
conditionDescription: input ligand: FMN 200 uM
Can you tell me apparent KD of MS2 coat protein for the items I'm about to list?
Give bare numbers, in nM.

INSERT INTO measurements (polymersequence, readoutnumber) VALUES
  ('CUGAAAUGUCAAGGAUAUCACGUCGAUUAGACGUGAGAAGGUGAUCUGCACAUGAGGAUCACCCAUGUGUUACAUGGAAAUCAG [Brourd''s SSNG1/1-A2 mod 14] (Eterna round: R96, puzzle: Same State NG 1)', 312);

Request: Sample UGACACACGGCAGGAUAUCCUUAGCAAAGCUAAGGAGAAGGGCCUCAUGUCGUGGAAACGUGACAUGAGGAUCACCCAUGUUGC [Omei SS(NG)1 Cv7] (Eterna round: R96, puzzle: Same State NG 1) — what was its apparent KD of MS2 coat protein?
Result: 154

----------
System: MS2 coat protein
protocolDescription: apparent KD of MS2 coat protein; higher = weaker reporter binding
conditionDescription: Eterna round: R107; input ligand: tryptophan 2.4 mM
observable: apparent KD of MS2 coat protein (nM)
One number for each entry, in nM.

INSERT INTO measurements (polymersequence, observable, unittag, readoutnumber) VALUES
  ('ACAUGAGGAUCACCCAUGUAAAUAACGGAAGGAGCGUGCAAAAGCACAGGUAGGUCGCCGAUAUAAAUAUUGGGUAUUAUAUUUU [AstrosExyArgA#3]', 'apparent KD of MS2 coat protein', 'nM', 29.6),
  ('AAAUAUAACUCGGCCGCCACUGACAUGAGGAUCACCCAUGUUAUAUUUUAUACAUGAGGAUCACCCAGGACCGGGAGAAUAUAAA [Jonah 1]', 'apparent KD of MS2 coat protein', 'nM', 1590),
  ('GCACGACAUGAGGAUCACCCAUGUGCAGAUACCAGUAAUGUAUAUUACCCUUGGCAGCUGAGUAGGUCUGGAGGGCUAUAGGUAA [Same State Theophylline A GF11]', 'apparent KD of MS2 coat protein', 'nM', 14.6),
  ('AUAUUAGACCUGGAUACCAGCGACAUGAGGAUCACCCAUGUAUGUGCAUCAGCCAUGAUAUGCCCUUGGCAGCCACCGAGGUCGU [YYTMULLIN]', 'apparent KD of MS2 coat protein', 'nM', 15.1);

Go through the list and state apparent KD of MS2 coat protein for each entry.
1. CCGGGCCCGGGCGACCGGGCCCGGACUGAAGGAGCGGGAAUAAACCCAGGUAGGUCGCAGAGAUCCACAUGAGGAUCACCCAUGU [!0.V]
2. GCUUGGGUGGCACGGCCCUGGCGGUGCGAUACCAGCACGGUAACGUGCCCUUGGCAGCGCACAUGAGGAUCACCCAUGUGGUGCG [#1 Exclusion - Theophylline A Attempt #24 (HarryS)]
3. ACAUGAGGAUCACCCAUGUAUUACCGGGAAGGAGCGCGUAAGGACGCAGGUAGGUCGCUCGGCGUCCGGCCGCAAGGCUGGACGA [#1 Same State - Arginine A Attempt #17 (HarryS)]

Result:
48.6
13.7
15.2

For each of the items listed, what is its apparent KD of MS2 coat protein?
1. UCACGAGGCCUGGAUACCAGCGACAUGAGGAUCACCCAUGUAUGAGGAUCAGCCAUGUUAUGCCCUUGGCAGCCACGAAGGUCAU [XZZMULLIN]
2. AACGUGAACGUGGUAUACCCGUGUGCCGAAGGAGCGCCCGUAAGGGCAGGUAGGUCGCGGUCGACAUGAGGAUCACCCAUGUUUG
3. GCUGAACAUGAGGAUCACCCAUGUCCGGAUACCAGCGGACCUCAUCGCCCUUGGCAGCCGAACCAACAGCUUGUGGUGUUCACUC [theeternabot_sameState_MS2_Theo_A_10]
4. GGCACCAGGAGAAGGAGCGUGAAGACAUGAGGAUCACCCAUGUAGAGGCGCCGACGGCGUUCGCAGGUAGGUCGCUCCUGGUGCC [#1 Same State - Arginine B Attempt #16 (HarryS)]
5. UUAUGCAGGUCGGCCGCCACUACACACAUGAGGAUCACCCAUGUAGUUACUGGGUGAAGUGGCAGUAGGACCGGGACCUGCACAC [Brourdmod14]
6. UCACAUGAGGAUCACCCAUGUCAUGUUGAAGGAGCGACCAGGAGGUCAGGUAGGUCGCAACACAUGAGGAUCACCCAUGUGGCCC [Qetesh]

Result:
[15.8, 81.6, 37.2, 29.3, 891, 149]

Hey, can you go through the list below and give me apparent KD of MS2 coat protein for every item?
1. UGGGCUGGGUGCGUAAAGGGCCUGGCGCAUCGAGGACCGGUACGGCCGCCACUCGGCUGUACAUGAGGAUCACCCAUGUCAGGGU [#1 Same State - Tryptophan A Attempt #18 (HarryS)]
2. GAGCACAUGAGGAUCACCCAUGUUGGCACACGAGGACCGGUACGGCCGCCACUCGCGGCGGGAAUAACUUUGCGCAGAUGAUGGG [theeternabot_sameState_MS2_Trp_A_50]
3. AAGAAGUUUUGAUUUUUAUGAAGUAGUGAUACCAGUUAAGAAAGAGACCCUUGGCAGCGCAACAUGAGGAUCACCCAUGUAAGAA [Another radom design]
4. ACAAGAGGGAUGGAUACCAGCGACAUGAGGAUCACCCAUGUAUGAGGAUCAGCCAUGUUAUGCCCUUGGCAGCCACGAAGAUCAG [XXXMULLIN]
5. GGACUAACUGGAAGGAGCGACACGCAGAAACUGCAAUUUCCUCCACACGAGGAUCACCCGUGUCAGGUAGGUCGCCAGUUAGUCG [ArgBX 29]
6. GCAUCCUAGUCGGCCGCCACUGCAUCACCGGUCCUAGGUGAUCAACAUGAGGAUCACCCAUGUAGCAGGACCGGGACUAGGAUGC [(Trp1)-(MT)''-(MT)'-(Ms2)-(Trp2)_Design2]

Result:
[364, 21.4, 21.9, 21.6, 40.9, 19.9]

Please give apparent KD of MS2 coat protein for each item listed below.
1. AUACAUGAGGAUCACCCAUGUCAUUCAGAAGGAGCGUCAUUUUAGACAGGUAGGUCGCUGAUAUUAUCUUUAUACUUUAUGUUUA [JR_ExcArginiA_Sub023]
2. AGACAUGAGGAUCACCCAUGUAGUACGGAUACCAGAUCCAGAUGCAUCCCUUGGCAGCUGUGGUACAGCGUUACAUCGCUCGUAG [Exclusion - Theophylline A (Freestyle 22)]
3. UCGUGUAUAUCGGAUACCAGUGAAAACGAUACAUGAGGAUCACCCAUGUGAGUUGAUGUACACCCUUGGCAGCUGUAUAUAUCUA [fokullin]
4. AGCACACAUCCUGAUACCAGAGACAUGAGGAUCACCCAUGUCCGAUCGUCCUGCCUCAGACUCCCUUGGCAGCAGGAUGUGUGCU [Exclusion Theophylline B GF7]

Result:
1. 19.9
2. 18.8
3. 18.6
4. 13.4
